Provide the recorded CC50 at 24 h for the entries that follow.
procedure summary: Cytotoxicity against african green monkey Vero cells after 24 hrs
Type: cell-based
test conditions: chlorocebus sabaeus
Write the answer as a number in µM, unit excluded.

// CC50 at 24 h lookup, key: CCO/N=C1\CC(NC)CN(c2nc3c(cc2F)c(=O)c(C(=O)O)cn3C2CC2)C1 (stereo not given)
731

Given the molecule CCO/N=C1\CC(NC)CN(c2c(F)cc3c(=O)c(C(=O)O)cn(C4CC4)c3c2F)C1 (stereo not given) , what is its reported CC50 at 24 h?
1010

Returns the measured CC50 at 24 h for the input molecule. Input: CCO/N=C1\CC(N)CN(c2nc3c(cc2F)c(=O)c(C(=O)O)cn3C2CC2)C1 (stereo not given)
967

So what does the record say about CC50 at 24 h for CCO/N=C1\CC(NC)CN(c2c(F)cc3c(=O)c(C(=O)O)cn(C4CC4)c3c2OC)C1 (stereo not given) ?
1520

Fill blank: measured CC50 at 24 h of the molecule CO/N=C1\CC(N)CN(c2c(F)cc3c(=O)c(C(=O)O)cn(C4CC4)c3c2OC)C1 (stereo not given) is ____.
885
